Conditions: 288.15 K; Liquid; Closed cell (Static) method
± gives the expanded uncertainty stated by the source.
Would you kindly list vapor or sublimation pressure for each of these compounds?
Respond with a number, then the unit of measure.

vapor or sublimation pressure reported for this compound `CC(C)(C)Cl` : 26.42 ± 0.062 kPa

vapor or sublimation pressure reported for this compound CCC(C)Cl (stereo not given) : 13.36 ± 0.035 kPa

vapor or sublimation pressure reported for this compound `CC(C)OC(C)C` : 12.65 ± 0.034 kPa

vapor or sublimation pressure reported for this compound `CC(C)CCl` : 13 ± 0.034 kPa

vapor or sublimation pressure reported for this compound `CCCCCl` : 8.4 ± 0.025 kPa
